Numbers sourced from the Human Domainome abundance scans (Beltran et al. 2025).

Provide the reported abundance fitness of each item.
B1: Transcription factor SOX-4, residues 60 to 127; numbered along this chain, Q06945 (parent)
chain: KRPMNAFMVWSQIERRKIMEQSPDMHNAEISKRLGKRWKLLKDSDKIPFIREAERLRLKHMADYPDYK

# Variants of: B1
# assayRemarks: abundance fitness (aPCA) (normalised: wild type 0, dead -1); higher = more abundant; growth selection in yeast, the domain comes from the species named
# conditionLabel: Homo sapiens
Number only, please.

The variant identified as R37I registered its abundance fitness at -0.371

The recorded abundance fitness for Q21H is -0.282

Reported abundance fitness for K46H was -1.09

# variant E54W ; its abundance fitness = -0.643

Notebook: M25R , abundance fitness read as -0.591

The variant listed as P48Q shows abundance fitness equal to -0.286
